test.target: UniProt Q9UGL1
experiment: KDM5B HTRF (TR-FRET) demethylase inhibition assay
Assay type: biochemical
run.parameters: 1.2 nM KDM5B, 30 nM Biotin-H3K4Me3 1-21 substrate, 10 point dose-response
readout.kind: IC50

# example entries with known answers
CN(Cc1cnc(-c2cc(C(=O)O)ccn2)n1CCc1ccc(F)cc1)C1CCN(Cc2ccccc2)CC1; ≤ 100 nM
CN1CCN(Cc2cnc(-c3cc(C(=O)O)ccn3)n2C)C(c2ccccc2)C1 (stereo not shown); ≤ 100 nM
O=C(O)c1ccnc(-c2ncc(CN3CCN(CCCOc4ccccc4)CC3)n2CCc2ccc(F)cc2)c1; ≤ 100 nM

Then this compound:
Data request: Sample `CN(Cc1ccc(N2CCOCC2)cc1)Cc1cnc(-c2cc(C(=O)O)ccn2)n1CCc1ccc(F)cc1` — what was its IC50?
Data returned: 100 to 500 nM

----------
test.target: KDM5B enzyme (Homo sapiens, UniProt Q9UGL1)
Sequence (Q9UGL1 whole entry): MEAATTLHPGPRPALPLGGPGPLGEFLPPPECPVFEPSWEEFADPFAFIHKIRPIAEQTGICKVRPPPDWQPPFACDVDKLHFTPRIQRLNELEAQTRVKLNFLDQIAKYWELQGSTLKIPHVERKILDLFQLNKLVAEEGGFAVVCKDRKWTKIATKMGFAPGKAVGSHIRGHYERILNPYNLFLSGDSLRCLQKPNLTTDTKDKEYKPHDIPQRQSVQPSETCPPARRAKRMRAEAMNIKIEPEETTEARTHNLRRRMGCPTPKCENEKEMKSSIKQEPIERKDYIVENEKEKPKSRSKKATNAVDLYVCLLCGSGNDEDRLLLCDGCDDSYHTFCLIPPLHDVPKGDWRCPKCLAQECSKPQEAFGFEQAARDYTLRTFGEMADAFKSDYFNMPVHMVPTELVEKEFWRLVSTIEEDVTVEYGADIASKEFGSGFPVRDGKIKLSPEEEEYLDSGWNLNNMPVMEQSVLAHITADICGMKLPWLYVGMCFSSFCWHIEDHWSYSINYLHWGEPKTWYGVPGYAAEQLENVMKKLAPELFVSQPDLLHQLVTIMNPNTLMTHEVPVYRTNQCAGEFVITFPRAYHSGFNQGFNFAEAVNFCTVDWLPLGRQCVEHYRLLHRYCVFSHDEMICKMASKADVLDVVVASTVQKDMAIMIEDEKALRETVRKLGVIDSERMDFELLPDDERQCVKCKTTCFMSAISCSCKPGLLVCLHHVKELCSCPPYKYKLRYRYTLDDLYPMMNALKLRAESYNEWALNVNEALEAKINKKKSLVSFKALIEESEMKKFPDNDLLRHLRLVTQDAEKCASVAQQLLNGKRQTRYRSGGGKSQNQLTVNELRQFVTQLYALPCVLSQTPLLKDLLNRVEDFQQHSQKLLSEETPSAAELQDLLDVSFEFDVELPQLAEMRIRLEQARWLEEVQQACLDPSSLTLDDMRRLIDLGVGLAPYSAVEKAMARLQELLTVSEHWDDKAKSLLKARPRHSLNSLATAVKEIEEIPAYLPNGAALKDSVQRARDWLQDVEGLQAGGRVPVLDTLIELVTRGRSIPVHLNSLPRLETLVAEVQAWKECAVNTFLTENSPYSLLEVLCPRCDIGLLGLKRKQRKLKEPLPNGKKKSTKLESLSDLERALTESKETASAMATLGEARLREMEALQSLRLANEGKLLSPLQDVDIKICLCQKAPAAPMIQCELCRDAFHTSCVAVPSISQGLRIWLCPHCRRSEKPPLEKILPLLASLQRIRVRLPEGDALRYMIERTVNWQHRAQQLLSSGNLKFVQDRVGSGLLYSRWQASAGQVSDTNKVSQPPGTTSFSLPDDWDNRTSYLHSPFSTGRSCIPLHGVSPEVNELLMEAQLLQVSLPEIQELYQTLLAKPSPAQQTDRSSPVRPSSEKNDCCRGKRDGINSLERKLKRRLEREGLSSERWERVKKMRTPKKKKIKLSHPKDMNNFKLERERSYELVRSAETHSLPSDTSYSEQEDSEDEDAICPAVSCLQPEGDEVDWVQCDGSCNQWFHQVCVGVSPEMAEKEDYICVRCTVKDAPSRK
experiment: KDM5B HTRF (TR-FRET) demethylase inhibition assay
Format: biochemical
run.parameters: 1.2 nM KDM5B, 30 nM Biotin-H3K4Me3 1-21 substrate, 10 point dose-response
readout.kind: IC50

# example entries with known answers
O=C(O)c1ccnc(-c2ncc(-c3ccccn3)n2CCc2ccc(Cl)cc2)c1 [Example 31]; 100 to 500 nM
COc1cc(C)ccc1CCn1ccnc1-c1cc(C(=O)O)ccn1 [Example 5]; > 500 nM
O=C(O)c1ccnc(-c2ncc(CN3CCc4c([nH]c5ccccc45)C3)n2CCc2ccc(F)cc2)c1 [Example 86]; ≤ 100 nM
N#Cc1ccccc1Cn1ccnc1-c1cc(C(=O)O)ccn1 [Example 9]; 100 to 500 nM

Data request: Sample O=C(O)c1ccnc(-c2nccn2Cc2ccc(Cl)cc2)c1 [Example 10] — what was its IC50?
Data returned: 100 to 500 nM

Data request: Follow-up entry: Cn1cc(-c2ccccn2)nc1-c1cc(C(=O)O)ccn1 [Example 13]
Data returned: > 500 nM

Data request: Follow-up entry: O=C(O)c1ccnc(-c2ncc(CO)n2CCc2ccc(Cl)cc2)c1 [Example 14]
Data returned: 100 to 500 nM

----------
test.target: KDM5B enzyme (Homo sapiens, UniProt Q9UGL1)
experiment: KDM5B HTRF (TR-FRET) demethylase inhibition assay
Type: biochemical
run.parameters: 1.2 nM KDM5B, 30 nM Biotin-H3K4Me3 1-21 substrate, 10 point dose-response
readout.kind: IC50

# example entries with known answers
COc1ccc(N(C)c2ccc3c(c2)OCCC3Cn2c(-c3cc(C(=O)O)ccn3)nc3ccccc32)cc1 (centres unmarked); > 500 nM
COc1cc(CN2CCC(NCCc3ccccc3)CC2)ccc1Cn1ccnc1-c1cc(C(=O)O)ccn1; 100 to 500 nM
CN(Cc1ccccn1)Cc1cnc(-c2cc(C(=O)O)ccn2)n1CCc1ccc(F)cc1; 100 to 500 nM
O=C(O)c1ccnc(-c2ncc(CCN3CCC(c4cc(Cl)cc(Cl)c4)CC3)n2CCc2ccc(F)cc2)c1; ≤ 100 nM
O=C(O)c1ccnc(-c2nc3ccccc3n2CC2CCOc3ccccc32)c1 (centres unmarked); ≤ 100 nM

Data request: Sample `O=C(O)c1ccnc(-c2ncc(CN3CCCN(c4ccccc4)CC3)n2CCc2ccc(F)cc2)c1` — what was its IC50?
Data returned: ≤ 100 nM

Data request: Follow-up entry: `CCN1CCN(c2ccc(Cn3ccnc3-c3cc(C(=O)O)ccn3)c3c2CCCC3)CC1`
Data returned: > 500 nM

Data request: Follow-up entry: `Cn1c(-c2ccccn2)cnc1-c1cc(C(=O)O)ccn1`
Data returned: ≤ 100 nM

Data request: Follow-up entry: `O=C(O)c1ccnc(-c2nc3ccccc3n2Cc2ccc(Cl)cc2)c1`
Data returned: 100 to 500 nM

Data request: Follow-up entry: `CN(Cc1ccc(F)cc1)Cc1ccc2nc(-c3cc(C(=O)O)ccn3)n(CCc3ccc(F)cc3)c2c1`
Data returned: 100 to 500 nM

Data request: Follow-up entry: `Cc1ccc(-n2ccnc2-c2cc(C(=O)O)ccn2)cc1`
Data returned: 100 to 500 nM

Data request: Follow-up entry: `O=C(O)c1ccnc(-c2ncc(CN3CCN(Cc4ccc(C(F)(F)F)cc4)CC3)n2CCc2ccc(F)cc2)c1`
Data returned: ≤ 100 nM

Data request: Follow-up entry: `O=C(O)c1ccnc(-c2ncc(CN(CCO)Cc3ccccc3)n2CCc2ccc(F)cc2)c1`
Data returned: 100 to 500 nM
